Taken from paper PMC7355937.

Target: human recombinant AChE (Homo sapiens, UniProt P22303)
Construct: purchased Sigma-Aldrich Co. LLC C1682
Sequence (P22303 32-614): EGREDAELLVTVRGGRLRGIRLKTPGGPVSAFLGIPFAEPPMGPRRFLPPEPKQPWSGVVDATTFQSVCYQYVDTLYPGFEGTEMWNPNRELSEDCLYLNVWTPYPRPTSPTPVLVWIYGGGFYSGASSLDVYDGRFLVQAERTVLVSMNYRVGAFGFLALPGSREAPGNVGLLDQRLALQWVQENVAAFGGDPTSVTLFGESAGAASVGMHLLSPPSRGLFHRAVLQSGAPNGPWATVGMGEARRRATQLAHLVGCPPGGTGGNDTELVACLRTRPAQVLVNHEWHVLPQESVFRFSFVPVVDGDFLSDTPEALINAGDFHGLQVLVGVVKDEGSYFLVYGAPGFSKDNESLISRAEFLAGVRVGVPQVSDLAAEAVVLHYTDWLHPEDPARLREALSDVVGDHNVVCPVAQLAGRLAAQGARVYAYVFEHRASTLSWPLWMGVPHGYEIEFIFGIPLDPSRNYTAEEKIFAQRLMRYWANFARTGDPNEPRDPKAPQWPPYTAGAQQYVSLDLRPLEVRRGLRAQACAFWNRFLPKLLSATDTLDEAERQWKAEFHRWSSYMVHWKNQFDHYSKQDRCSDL
Experiment: biochemical
Conditions: poorly soluble compound, methanol supernatant tested, nominal 200 µM
Provide the reported AChE %Inhibition of supernatant (MeOH) of each item.
Answers are plain numbers, in %.

Give measured AChE %Inhibition of supernatant (MeOH) for every item shown.
1. O=C(Nc1ccc(CN2CCCCC2)cc1)c1ccc(Cl)cc1
2. O=c1[nH]c2ccccc2c(=O)n1-c1ccc(CN2CCCC2)cc1
3. O[C@@H]1c2ccc(-c3cccnc3)cc2OC[C@H]1N1CCCC1

OUT:
1: 100; 2: 63.7; 3: 45.9

Give measured AChE %Inhibition of supernatant (MeOH) for every item shown.
1. O=C(Nc1cccc(CN2CCCC2)c1)C1=Cc2cc(Cl)ccc2OC1
2. c1cc(-c2ccc(-c3ccc(CN4CCCC4)cn3)cc2)n[nH]1

OUT:
1: 100; 2: 100
